Overview of recorded TGI for various compounds
- System: PC-3 prostate
- assay.procedure: NCI tumour cell line growth inhibition, 48 h

Form field: reported TGI of [O-]/N=N\c1on[n+](CCc2ccccc2)c1Cc1c(/N=N/[O-])on[n+]1CCc1ccccc1
> 100 µM

Try this compound next: Clc1cc2nnn(C3CCCCO3)c2cc1Cl (stereo not given)
> 100 µM

// query: CC(C)CC(NC=O)C(=O)NC(Cc1ccccc1)NC(=O)CNC(=O)C(C)NC(=O)OC(C)(C)C (stereo not given)
> 100 µM

Others:
Item under review: N#CC12CC=C(c3ccccc3)N=C1NC(c1ccccc1)=CC2 (stereo not given) . Reported TGI?
> 100 µM

Follow-up item: CC(=O)c1c2c(cc3c1CC1(C3)Cc3ccc4c(c3C1=O)CCC4)CCC2 (stereo not given)
> 100 µM

Here is the next compound: CC(=O)O[C@@H]1[C@@H](C)[C@]2(CC(c3ccoc3)OC2O)C2CCC3O[C@]3(C)[C@]2(C)[C@@H]1OC(C)=O (stereo not given in full)
> 100 µM

Thanks! And CC1C2CC(CC2O)C1(C)C (stereo not given) ?
> 100 µM

Then this compound: CCOC(=O)c1c(C(F)(F)F)n([O-])c2ccc(Cl)cc2[n+]1=O
3.02 µM

What would you report for O=[N+]([O-])c1ccc(N/N=C/c2ccccc2O)nc1 ?
> 100 µM

Same again, this time with Cc1ccc2c(n1)C(=O)C(Cl)=C(Nc1ccc(N3CCN(C)CC3)cc1)C2=O
3.16 µM

---

- Test system: EKVX NSCLC
- assay.procedure: NCI tumour cell line growth inhibition, 48 h
measured.quantity: TGI

Below, each entry is followed by its recorded TGI result.
For the record C=CCC1(O)C(=O)OC2C(O)COC21O (centres undefined) , what value of TGI is listed for EKVX NSCLC?
> 100 µM

Cool, now Cc1no[n+]([O-])c1/C=N/NS(=O)(=O)c1ccccc1
> 100 µM

Item: CCOC(=O)c1c(C(F)(F)F)n([O-])c2ccc(Cl)cc2[n+]1=O
5.14 µM

Next: NC(Cn1ccc(=O)c(O)c1)C(=O)O (centres undefined)
> 100 µM

***
Lab request: please report TGI under test system EKVX NSCLC for C=CCN1C(=O)/C(=C/c2ccccc2)N=C1SC1OC(COC(C)=O)C(OC(C)=O)C(OC(C)=O)C1OC(C)=O (centres undefined)
63.7 µM

And what about the compound c1cc2ccc3cc2cc1CNCCOCCNCc1ccc2ccc(cc2c1)CNCCOCCNC3 ?
> 100 µM

---

- Test system: SK-MEL-28 melanoma
- assay.procedure: NCI tumour cell line growth inhibition, 48 h
measured.quantity: TGI

Fill in: TGI of CC(=O)NC1CCCN(O)C(=O)/C=C(/C)CCOC(=O)C(NC(C)=O)CCCN(O)C(=O)/C=C(/C)CCOC(=O)C(NC(C)=O)CCCN(O)C(=O)/C=C(/C)CCOC1=O.[Fe] (stereo unspecified) is ___
> 100 µM

And then Cc1ccccc1C(=O)NC(O)(C(F)(F)F)C(F)(F)F , what is it?
> 100 µM

Proceed to CCc1ccc(Oc2nccc(-c3c(-c4ccc(F)cc4)ncn3C3CCNCC3)n2)cc1
8.44 µM

Similarly, CCOC(=O)C(Cc1ccc2c(c1)CCC2)Cc1ccc2c(c1)CCC2 ?
> 100 µM

// next record N#Cc1ccc(N2Cc3cc(Cl)ccc3OC3=C2C(=O)N(Cc2ccc(F)cc2)C3=O)cc1
1.13 µM

Cool, now CC(=O)N1N=C(c2ccc3ccccc3c2O)CC1c1ccc(Cl)cc1Cl (stereo unspecified)
> 100 µM

Continue with Cc1cc(NS(=O)(=O)c2ccc(NC(=O)COc3ccc(-c4cc5ccccc5[nH]4)cc3)cc2)no1
3.17 µM

Repeat with CN(C)C=NCc1ccc2c(c1)OCO2
> 100 µM

Also, Clc1ccc(/C=C/c2nc(-c3ccc(Cl)cc3)cn3c2nc2ccccc23)cc1 please.
> 100 µM

Also, CSC1=N/C(=C\c2ccccc2)C(=O)N1CN1CCOCC1 please.
> 100 µM

Input C=CC(Br)(CBr)CCC(Br)C(C)(C)Br (stereo unspecified)
29.8 µM

Do the same for COc1ccccc1N(C(C)=O)C1=C(Cl)C(=O)c2ccccc2C1=O please
7.03 µM

// query: O=S(=O)(CC(O)C(Cl)(Cl)Cl)NNc1ccccc1 (stereo unspecified)
> 100 µM

Can you check c1csc(-c2sc(-c3ccsc3)cc2Cc2ccsc2)c1 next?
> 10 µM

---

- Test system: SN12C renal
- assay.procedure: NCI tumour cell line growth inhibition, 48 h
measured.quantity: TGI

# input compound: CN(C(=O)C12C3C4C1C1C2C3C41C(=O)N(C)C(C)(C)C)C(C)(C)C (stereo not drawn) ; wanted: its TGI
> 50 µM

Next compound: CC(C)[Si](Oc1cc2c3c(ccc2c(O)c1[C@@H](C)CO[Si](C)(C)C(C)(C)C)C(C)(C)CCC3)(C(C)C)C(C)C
> 100 µM

Now this one: CC(=O)C1=C(C)N(c2ccc(C)cc2)C2(O)C=CC(=O)C3=C(O)c4ccccc4C(=O)C312 (stereo not drawn)
36.9 µM

Same question, Nc1ncnc2c1nc(N)n2C1OC(CO)C(O)C1O (stereo not drawn) this time
3.21 µM

How about this compound: CC(C)(C)C(=O)CC(=O)C(F)(F)C(F)(F)C(F)(F)F.CC(C)(C)C(=O)CC(=O)C(F)(F)C(F)(F)C(F)(F)F.CC(C)(C)C(=O)CC(=O)C(F)(F)C(F)(F)C(F)(F)F.[Er]
> 100 µM

Ok, now O=C(Cc1nc2ccc(C(=O)c3ccccc3)cc2[nH]c1=O)C(=O)Nc1ccc(C(F)(F)F)cc1[N+](=O)[O-]
> 100 µM

Check O=C(O)c1cccc(S(=O)(=O)NN2C(=O)CSC2c2ccccc2Cl)c1 (stereo not drawn) too.
> 100 µM

Let us now turn to Cc1cc(Br)c2nsnc2c1[N+](=O)[O-]
17.2 µM

---

Reported TGI values for a set of compounds
- System: XF 498 CNS
- assay.procedure: NCI tumour cell line growth inhibition, 48 h
Only the number, expressed in µM, is required.

Example compounds with recorded TGI:
Param item = CC1=C(C(=O)Nc2cccc(C(F)(F)F)c2)C(c2ccccc2F)C(C(=O)Nc2cccc(C(F)(F)F)c2)=C(C)N1 ; retrieve measured TGI.
14.6

Please answer likewise for [CH3][Sn]([CH3])([CH3])[O]C(=O)C(O)c1ccccc1 (stereo not given)
20.9

Try this compound next: C=C(CS(=O)(=O)c1ccccc1)C(=O)OCC
33.4

Others:
Name the reported TGI value associated with the compound Cc1ccc(S(=O)(=O)C(C#N)c2nc3ccccc3nc2N2CCOCC2)cc1 (stereo not given)
81.7

---

- System: PC-3 prostate
- assay.procedure: NCI tumour cell line growth inhibition, 48 h
# maps each entry to its TGI

Under PC-3 prostate: TGI value of CC(=O)OCC1=C2C(OC(=O)C(C)C)CC3(COC(C)=O)OC3/C=C\C3(C)OC3C2OC1=O (stereo not given) ?
> 100 µM

***
Param readout = TGI; param system = PC-3 prostate; param query = O=c1[nH]cc(CO)c(=O)[nH]1 ; response: value
> 100 µM

---

- Tested on: A549 NSCLC
- assay.procedure: NCI tumour cell line growth inhibition, 48 h
measured.quantity: TGI (µM)
// return numeric value only (unit: µM, not printed)

Given O=C1C=CC(=O)c2c1cc1ccccc1c2O , state its recorded TGI.
35.3

What do you have for CCCCCCCCn1ccc2cc(NC(=O)Cn3cc(CN4CCC(C)CC4)nn3)ccc21 ?
3.4

Field: next compound
Form field: reported TGI of O=C(NCCSSCCNC(=O)/C(Cc1ccc(O)c(Br)c1)=N/O)/C(Cc1ccc(O)c(Br)c1)=N/O
15.5

---

- Test system: MCF7 breast
- assay.procedure: NCI tumour cell line growth inhibition, 48 h
measured.quantity: TGI

Entry under review: O=C(/C=C/c1cc(F)ccc1F)OCCc1ccccc1 . Reported TGI?
> 100 µM

Another compound to look at: Cc1cc(C(=O)N2CCN(C)CC2)c2c(=O)n(-c3ccccc3)c(=O)n(CC(O)CN3CCN(c4ncccn4)CC3)c2n1 (centres undefined)
> 100 µM

Repeat with O=c1[nH]cc(CO)c(=O)[nH]1
> 100 µM

---
Form field: reported TGI of CC1C(O)[C@@]2(OC[C@@]34C(=O)CC5(O)[C@H](CCC6Cc7nc8c(nc7C[C@]65C)CC5CC[C@@H]6C7=C[C@H]9O[C@@]%10(O[C@@](C)(CO)C[C@@H]%10O)C(C)[C@@]9(O)[C@]7(C)[C@@H](O)CC6[C@]5(C)C8)C3=CC[C@H]4C2C)OC1(C)C (some centres undefined)
0.625 µM

Moving on to the next compound: COc1cccc(C(C#N)NC23CC4CC(CC(C4)C2)C3)c1 (centres undefined)
> 100 µM
